- SYSTEM: human TLR8 (Homo sapiens)
- ASSAY_NOTES: TLR7/8/9 Inhibition Reporter Assays (TLR8)
- MEASUREMENT_PARAMETERS: HEK-Blue cells overexpressing human TLR8, SEAP reporter, stimulated with TLR8 ligand R848

COMPOUND | SYSTEM | IC50
COCCN1CC2(C1)CN(c1ccc(-c3cc4c(nc(-c5ccc(OC)c(OC)c5)n4C)c(C)n3)cc1)C2 [Example 101] | human TLR8 (Homo sapiens) | > 50 µM
Cc1nc(-c2ccc(N3CC4(CCN(CC(C)C)CC4)C3)cc2)cc2c1nc(-c1ccc(S(C)(=O)=O)cc1)n2C [Example 98] | human TLR8 (Homo sapiens) | > 50 µM
Cc1cc(-c2nc3c(C)nc(-c4ccc(N5CCN(C(C)C)CC5)cc4)cc3n2C)cc(C)n1 [Example 13] | human TLR8 (Homo sapiens) | > 50 µM
Cc1cc(-c2nc3c(C)nc(-c4ccc(N5CCN(C6CCC6)CC5)cc4)cc3n2C)cc(C)n1 [Example 16] | human TLR8 (Homo sapiens) | > 50 µM
Cc1nc(-c2ccc(N3CCN(CC(C)C)CC3)cc2)cc2c1nc(-c1ccc(S(C)(=O)=O)cc1)n2C [Example 7] | human TLR8 (Homo sapiens) | > 50 µM
COc1cc(-c2nc3c(C)nc(-c4ccc(N5CCN(C6CCC6)CC5)cc4)cc3n2C)cn2ncnc12 [Example 12] | human TLR8 (Homo sapiens) | > 50 µM
Cc1nc(-c2ccc(N3CCC(N4CCCC4)CC3)c(F)c2)cc2c1nc(-c1ccc(S(C)(=O)=O)cc1)n2C [Example 42] | human TLR8 (Homo sapiens) | > 50 µM
Cc1nc(C2CCN(C3CCN(C(C)C)CC3)CC2)cc2c1nc(-c1ccc(S(C)(=O)=O)cc1)n2C [Example 38] | human TLR8 (Homo sapiens) | > 50 µM
Cc1nc(-c2ccc(CN3CCC(N4CCOCC4)CC3)cc2)cc2c1nc(-c1ccc(S(C)(=O)=O)cc1)n2C1CC1 [Example 48] | human TLR8 (Homo sapiens) | 1.7 µM
Cc1nc(-c2ccc(C3CCN(CC4COC4)CC3)cc2)cc2c1nc(-c1ccc(S(C)(=O)=O)cc1)n2C [Example 29] | human TLR8 (Homo sapiens) | > 50 µM

* * *

- SYSTEM: human TLR8 (Homo sapiens, UniProt Q9NR97)
- Construct: host or cells: HEK-Blue cells (HEK293-derived reporter line)
- Sequence (Q9NR97 27-1041): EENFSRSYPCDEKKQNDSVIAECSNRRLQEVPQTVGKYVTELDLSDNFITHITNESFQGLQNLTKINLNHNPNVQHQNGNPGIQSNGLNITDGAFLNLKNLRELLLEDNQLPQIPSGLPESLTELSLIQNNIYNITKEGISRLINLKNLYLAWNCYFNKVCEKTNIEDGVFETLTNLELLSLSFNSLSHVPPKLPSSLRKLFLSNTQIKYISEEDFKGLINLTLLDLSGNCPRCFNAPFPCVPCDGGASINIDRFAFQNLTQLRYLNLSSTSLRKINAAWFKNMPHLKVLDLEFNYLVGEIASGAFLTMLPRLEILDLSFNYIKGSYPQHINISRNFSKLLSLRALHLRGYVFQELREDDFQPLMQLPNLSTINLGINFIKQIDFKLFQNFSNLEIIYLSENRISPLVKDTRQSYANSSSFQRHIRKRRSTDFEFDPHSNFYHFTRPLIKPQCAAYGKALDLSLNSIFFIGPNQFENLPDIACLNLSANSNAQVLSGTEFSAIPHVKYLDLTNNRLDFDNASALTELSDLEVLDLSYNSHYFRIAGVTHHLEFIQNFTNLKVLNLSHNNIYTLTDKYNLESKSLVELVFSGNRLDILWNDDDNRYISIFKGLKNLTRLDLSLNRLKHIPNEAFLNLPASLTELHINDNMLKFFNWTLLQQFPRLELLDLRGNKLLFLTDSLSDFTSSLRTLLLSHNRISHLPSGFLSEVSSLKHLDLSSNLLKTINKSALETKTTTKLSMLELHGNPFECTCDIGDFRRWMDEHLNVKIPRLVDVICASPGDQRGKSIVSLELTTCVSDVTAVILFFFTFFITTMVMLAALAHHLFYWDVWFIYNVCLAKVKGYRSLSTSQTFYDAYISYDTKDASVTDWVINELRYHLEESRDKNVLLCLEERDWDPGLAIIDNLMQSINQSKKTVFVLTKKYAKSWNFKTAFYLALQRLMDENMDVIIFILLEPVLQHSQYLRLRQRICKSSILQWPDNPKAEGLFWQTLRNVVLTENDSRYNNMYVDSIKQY
- ASSAY_NOTES: TLR7/8/9 Inhibition Reporter Assays (TLR8)
- Assay type: cell-based
- MEASUREMENT_PARAMETERS: HEK-Blue cells overexpressing human TLR8, SEAP reporter, stimulated with TLR8 ligand R848
pIC50: −log10 of the molar value.

SMILES_STRING | SYSTEM | REPORTED_RELATION | pIC50
CC(C)CN1C[C@@H]2CN(c3ccc(-c4cc5c(cn4)nc(-c4ccc(S(C)(=O)=O)cc4)n5C4CC4)cc3)C[C@@H]2C1 | human TLR8 (Homo sapiens, UniProt Q9NR97) | = | 5.96
COc1ccc(-c2nc3c(C)nc(-c4ccc(N5CC6(C5)CN(C(C)C)C6)cc4)cc3n2C)cc1OC | human TLR8 (Homo sapiens, UniProt Q9NR97) | = | 5.44
CC(C)N1CCC(N2CCC(c3cc4c(nc(-c5ccc(S(C)(=O)=O)cc5)n4C)c(C(F)(F)F)n3)CC2)CC1 | human TLR8 (Homo sapiens, UniProt Q9NR97) | < | 4.30
COc1ccc(-c2nc3c(C)nc(-c4ccc(N5CCN(C(C)C)CC5)cc4)cc3n2C)cc1OC | human TLR8 (Homo sapiens, UniProt Q9NR97) | = | 5.13
COC1CCN(Cc2ccc(-c3ccc(-c4cc5c(nc(-c6ccc(S(C)(=O)=O)cc6)n5C)c(C)n4)cc3)nc2)CC1 | human TLR8 (Homo sapiens, UniProt Q9NR97) | < | 4.30
CC(C)CN1CCC(N2CCC(c3cc4c(cn3)nc(-c3ccc(S(C)(=O)=O)cc3)n4C)CC2)CC1 | human TLR8 (Homo sapiens, UniProt Q9NR97) | < | 4.60
